tested system: Xanthine dehydrogenase/oxidase (Homo sapiens)
Sequence (P47989 whole entry): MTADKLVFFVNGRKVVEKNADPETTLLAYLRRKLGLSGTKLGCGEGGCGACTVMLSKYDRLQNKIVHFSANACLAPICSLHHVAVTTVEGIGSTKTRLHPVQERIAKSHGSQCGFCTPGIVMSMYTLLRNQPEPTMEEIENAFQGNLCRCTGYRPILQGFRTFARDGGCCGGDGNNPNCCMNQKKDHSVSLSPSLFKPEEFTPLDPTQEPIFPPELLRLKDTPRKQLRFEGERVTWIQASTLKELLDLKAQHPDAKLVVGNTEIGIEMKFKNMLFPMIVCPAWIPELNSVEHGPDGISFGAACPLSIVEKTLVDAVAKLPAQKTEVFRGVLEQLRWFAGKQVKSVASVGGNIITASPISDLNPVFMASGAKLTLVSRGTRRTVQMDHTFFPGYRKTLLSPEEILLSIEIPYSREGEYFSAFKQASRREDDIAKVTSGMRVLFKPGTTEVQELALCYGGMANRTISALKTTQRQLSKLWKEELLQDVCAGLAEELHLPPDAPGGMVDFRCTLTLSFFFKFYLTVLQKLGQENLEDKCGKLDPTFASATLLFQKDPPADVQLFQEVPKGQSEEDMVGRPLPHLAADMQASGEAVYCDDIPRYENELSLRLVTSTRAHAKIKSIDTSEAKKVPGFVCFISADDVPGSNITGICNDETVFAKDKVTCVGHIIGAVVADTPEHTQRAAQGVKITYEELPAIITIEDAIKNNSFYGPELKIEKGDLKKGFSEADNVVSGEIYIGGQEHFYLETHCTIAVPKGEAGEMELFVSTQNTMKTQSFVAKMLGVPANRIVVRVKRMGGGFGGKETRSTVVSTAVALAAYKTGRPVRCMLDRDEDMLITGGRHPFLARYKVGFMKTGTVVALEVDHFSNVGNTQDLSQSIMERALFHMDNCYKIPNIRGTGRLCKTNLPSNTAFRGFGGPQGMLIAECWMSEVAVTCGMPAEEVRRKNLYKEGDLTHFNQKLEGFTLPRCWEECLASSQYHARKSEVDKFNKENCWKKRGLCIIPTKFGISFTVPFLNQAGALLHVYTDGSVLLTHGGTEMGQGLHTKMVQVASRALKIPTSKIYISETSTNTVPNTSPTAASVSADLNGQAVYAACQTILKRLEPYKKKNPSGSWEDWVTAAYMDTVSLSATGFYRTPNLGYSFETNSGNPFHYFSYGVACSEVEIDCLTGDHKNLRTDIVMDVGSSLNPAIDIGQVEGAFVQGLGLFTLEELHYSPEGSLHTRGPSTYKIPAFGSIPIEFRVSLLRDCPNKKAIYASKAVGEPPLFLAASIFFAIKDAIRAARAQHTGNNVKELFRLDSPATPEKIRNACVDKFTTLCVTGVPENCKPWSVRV
quantity: IC50

Query string: Give the reported IC50 for this compound. O=c1[nH]c(=O)c2[nH]c(Br)nc2[nH]1
Result string: 400 µM
